Cited source for all entries: patent US20260028403A1

Here the recorded pEC50 is given for each entry.
Target or test system: T1, Mouse CLDN18 A2.1 (mouse, UniProt P56857 10-264)
T1 construct: on transfected HEK293-6E cells; also called Mouse CLDN18 2.1; mouse CLDN18.2 ortholog
T1 chain: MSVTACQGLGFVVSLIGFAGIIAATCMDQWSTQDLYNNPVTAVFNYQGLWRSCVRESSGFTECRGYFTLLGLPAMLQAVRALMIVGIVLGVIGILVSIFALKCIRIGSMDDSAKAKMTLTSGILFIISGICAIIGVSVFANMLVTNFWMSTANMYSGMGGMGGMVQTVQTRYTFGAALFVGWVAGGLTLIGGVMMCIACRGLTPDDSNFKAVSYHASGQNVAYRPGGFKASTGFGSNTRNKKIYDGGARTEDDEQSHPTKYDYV
Experiment summary: flow cytometry, HEK293-6E + mouse CLDN18, 4PL fit
pEC50: −log10 of the molar value.
Observed property: pEC50

binder="v37407 (antibody, human IgG1, V domains shown, human IgG1-based monoclonal antibody; also called H4-L4) VH: QVQLVESGGGLVQPGGSLRLSCSVSGIDLSSNPMIWVRQAPGKGLEYIGIIDTDGSTYYADWAKGRFTISKDSTTVYLQMNSLRAEDTAVYYCARRLHGSSNGYYDDLWGQGTLVTVSS VL: DGQMTQSPSSVSASVGDRVTITCQASQSIYSYLSWYQQKPGQRPKLLIYKASTLASGVPSRFSGSGSGTDFTLTISSVQPEDFATYYCQQGYTVTNVDKNTFGGGTKVEIK" observed_property=pEC50 experimental_result=9.10
binder="v37408 (antibody, human IgG1, V domains shown, human IgG1-based monoclonal antibody; also called H4-L2) VH: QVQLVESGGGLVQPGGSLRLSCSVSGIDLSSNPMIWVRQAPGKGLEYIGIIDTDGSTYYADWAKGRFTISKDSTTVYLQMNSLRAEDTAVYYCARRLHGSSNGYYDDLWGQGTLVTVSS VL: DGQMTQSPSSVSASVGDRVTITCQASQSIYSYLSWYQQKPGQRPKLLIYKASTLASGVPSRFSGSGSGTDFTLTISSVQPEDAATYYCQQGYTVTNVDKNTFGGGTKVEVK" observed_property=pEC50 experimental_result=8.58
binder="v35777 (antibody, human IgG1, V domains shown, also called parental rabbit chimeric; rabbit-human chimeric IgG1/kappa anti-CLDN18.2) VH: QSLEESGGRLVTPGTPLTLTCTVSGIDLSSNPMIWVRQAPGKGLQYIGIIDTDGSTYYASWAKGRFTGSKTSTTVDLKITSPTTEDTATYFCARRLHGSSNGYYDDLWGQGTLVTISS VL: DGVMTQTPSSVSAAVGGTVTIKCQASQSIYSYLSWYQQKPGQRPKLLIYKASTLASGVPSRFKGSGSGTEFTLTISGVQCDDAATYYCQQGYTVTNVDKNTFGGGTEVVVK" observed_property=pEC50 experimental_result=9.06
binder="v37411 (antibody, human IgG1, V domains shown, human IgG1-based monoclonal antibody; also called H5-L4; anti-CLDN18.2 mAb) VH: QVQLVESGGGLVQPGGSLRLSCSVSGIDLSSNPMIWVRQAPGKGLQYIGIIDTDGSTYYADWAKGRFTISKDSTTVYLQINSPRAEDTAVYYCARRLHGSSNGYYDDLWGQGTLVTVSS VL: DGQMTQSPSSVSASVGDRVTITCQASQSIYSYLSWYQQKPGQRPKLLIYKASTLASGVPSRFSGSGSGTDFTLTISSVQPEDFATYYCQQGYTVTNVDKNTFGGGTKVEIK" observed_property=pEC50 experimental_result=8.99
